Item-by-item account of (H2O2 produced by Compound)/(H2O2 produced by L-Trp)
- assayInfo: Photosensitivity screening assay (H2O2 by Amplex Ultra Red after light exposure)
- Assay type: physicochemical
- details: 1 mM in 20 mM histidine acetate pH 5.5, four hours of light at 250 W/m^2
endpointName: (H2O2 produced by Compound)/(H2O2 produced by L-Trp)

{"compound": "O=C(O)c1cc(O)ccc1O [5-Hydroxysalicylic Acid]", "valueObserved": 0.84}
{"compound": "Oc1cccc2[nH]ccc12 [4-Hydroxyindole]", "valueObserved": 0.00}
{"compound": "Nc1ccccc1C(=O)O [Anthranilic Acid]", "valueObserved": 2.50}
{"compound": "Nc1ccc2[nH]cc(CC(N)C(=O)O)c2c1 (racemic) [5-Amino-DL-Trp, 5-amino-DL-tryptophan]", "valueObserved": 0.29}

###

- assayInfo: Cyclic voltammetry (CV) screening assay, oxidation potential
- Type: physicochemical
- details: cyclic voltammetry, 0.2 M lithium perchlorate
endpointName: Oxidation Potential (V vs Ag/AgCl)

{"compound": "COc1ccc2[nH]cc(CC(N)C(=O)O)c2c1 (racemic) [5-Methoxy-DL-Trp, 5-methoxy-DL-tryptophan]", "endpointName": "Oxidation Potential", "valueObserved": 0.890}
{"compound": "O=C(O)c1ccccc1O [Salicylic Acid]", "endpointName": "Oxidation Potential", "valueObserved": 1.080}
{"compound": "Nc1ccc2[nH]cc(CC(N)C(=O)O)c2c1 (racemic) [5-Amino-DL-Trp, 5-amino-DL-tryptophan]", "endpointName": "Oxidation Potential", "valueObserved": 0.410}
{"compound": "N[C@@H](Cc1c[nH]c2ccccc12)C(=O)O [L-Trp, L-tryptophan]", "endpointName": "Oxidation Potential", "valueObserved": 0.938}

###

- assayInfo: Cyclic voltammetry (CV) screening assay, oxidation potential
- Type: physicochemical
- details: anodic peak potential, glassy carbon working electrode, 0.2M lithium perchlorate
- Procedure: The oxidation/reduction characteristics of the compounds were investigated. Several compounds, including L-Trp and derivatives, were evaluated for the protection of Trp oxidation in proteins using cyclic voltammetry (CV) and rank ordered based on their oxidation potentials (Table 2). Specifically, the candidate antioxidants were dissolved in deionized water and then added to a 0.2 M lithium perchlorate electrolyte solution. […]

{"molecule": "N[C@@H](Cc1c[nH]c2ccc(O)cc12)C(=O)O [5-Hydroxy-L-Trp, 5-hydroxy-L-tryptophan]", "Oxidation Potential, V vs Ag/AgCl": 0.565}
{"molecule": "NCCc1c[nH]c2ccccc12", "Oxidation Potential, V vs Ag/AgCl": 1.010}
{"molecule": "Nc1ccc2[nH]cc(CC(N)C(=O)O)c2c1 (racemic)", "Oxidation Potential, V vs Ag/AgCl": 0.410}
{"molecule": "O=C(O)Cc1c[nH]c2ccc(O)cc12 [5-Hydroxyindole-3-Acetic Acid]", "Oxidation Potential, V vs Ag/AgCl": 0.535}
{"molecule": "Nc1ccccc1C(=O)C[C@H](N)C(=O)O", "Oxidation Potential, V vs Ag/AgCl": 1.040}
{"molecule": "O=C(O)Cc1c[nH]c2ccccc12", "Oxidation Potential, V vs Ag/AgCl": 0.948}
{"molecule": "Oc1ccc2[nH]ccc2c1 [5-Hydroxyindole]", "Oxidation Potential, V vs Ag/AgCl": 0.580}
{"molecule": "NC(Cc1c[nH]c2ccc([N+](=O)[O-])cc12)C(=O)O (racemic)", "Oxidation Potential, V vs Ag/AgCl": 1.055}
{"molecule": "COc1ccc2[nH]cc(CC(N)C(=O)O)c2c1 (racemic)", "Oxidation Potential, V vs Ag/AgCl": 0.890}
{"molecule": "N[C@@H](Cc1c[nH]c2ccccc12)C(=O)O", "Oxidation Potential, V vs Ag/AgCl": 0.938}
{"molecule": "N[C@@H](Cc1c[nH]c2ccc(F)cc12)C(=O)O", "Oxidation Potential, V vs Ag/AgCl": 0.965}
{"molecule": "NC(=O)[C@@H](N)Cc1c[nH]c2ccccc12 [L-Trpamide, L-tryptophanamide]", "Oxidation Potential, V vs Ag/AgCl": 1.015}
{"molecule": "COc1ccc2[nH]cc(CCNC(C)=O)c2c1", "Oxidation Potential, V vs Ag/AgCl": 0.730}
{"molecule": "CC(=O)N[C@@H](Cc1c[nH]c2ccccc12)C(=O)O", "Oxidation Potential, V vs Ag/AgCl": 0.875}
{"molecule": "NCCc1c[nH]c2ccc(O)cc12 [Serotonin (5-Hydroxytryptamine), 5-Hydroxytryptamine]", "Oxidation Potential, V vs Ag/AgCl": 0.600}
{"molecule": "O=C(O)c1ccccc1O", "Oxidation Potential, V vs Ag/AgCl": 1.080}

###

- assayInfo: Photosensitivity screening assay (H2O2 by Amplex Ultra Red after light exposure)
- Format: physicochemical
- details: 1 mM in 20 mM histidine acetate pH 5.5, four hours of light at 250 W/m^2
Item-by-item account of (H2O2 produced by Compound)/(H2O2 produced by L-Trp)
endpointName: (H2O2 produced by Compound)/(H2O2 produced by L-Trp)

{"compound": "N[C@@H](Cc1c[nH]c2ccccc12)C(=O)O [L-Trp, L-tryptophan]", "valueObserved": 1}
{"compound": "NCCc1c[nH]c2ccccc12 [Tryptamine]", "valueObserved": 0.53}
{"compound": "CC(=O)N[C@@H](Cc1c[nH]c2ccccc12)C(=O)O [N-Acetyl-L-Trp, N-acetyl-L-tryptophan]", "valueObserved": 0.31}
{"compound": "N[C@@H](Cc1c[nH]c2ccc(O)cc12)C(=O)O [5-Hydroxy-L-Trp, 5-hydroxy-L-tryptophan]", "valueObserved": 0.09}
{"compound": "Nc1ccccc1C(=O)C[C@H](N)C(=O)O [L-Kynurenine, L-kynurenine]", "valueObserved": 0.20}
{"compound": "Cc1c(C)c2c(c(C)c1O)CCC(C)(C(=O)O)O2 (stereo not shown) [Trolox]", "valueObserved": 122.75}
{"compound": "NC(=O)[C@@H](N)Cc1c[nH]c2ccccc12 [L-Trpamide, L-tryptophanamide]", "valueObserved": 0.43}
{"compound": "N[C@@H](Cc1c[nH]c2ccc(F)cc12)C(=O)O [5-Fluoro-L-Trp, 5-fluoro-L-tryptophan]", "valueObserved": 0.71}
{"compound": "O=C(O)c1cc2cccc(O)c2[nH]1 [7-Hydroxyindole-2-Carboxylic Acid]", "valueObserved": 0.15}
{"compound": "O=C(O)Cc1c[nH]c2ccc(O)cc12 [5-Hydroxyindole-3-Acetic Acid]", "valueObserved": 0.11}
{"compound": "COc1ccc2[nH]cc(CC(N)C(=O)O)c2c1 (racemic) [5-Methoxy-DL-Trp, 5-methoxy-DL-tryptophan]", "valueObserved": 1.05}
{"compound": "Oc1cccc2cc[nH]c12 [7-Hydroxyindole]", "valueObserved": "−0.03"}
{"compound": "NCCc1c[nH]c2ccc(O)cc12 [Serotonin (5-Hydroxytryptamine), 5-Hydroxytryptamine]", "valueObserved": 0.03}
{"compound": "Cc1ncc(CO)c(CO)c1O [Pyridoxine]", "valueObserved": 5.16}
{"compound": "Nc1ccc(O)cc1C(=O)O [5-Hydroxyanthranilic Acid]", "valueObserved": 0.44}
{"compound": "c1ccc2[nH]ccc2c1 [Indole]", "valueObserved": 0.95}
{"compound": "COc1ccc2[nH]cc(CCNC(C)=O)c2c1 [Melatonin (N-Acetyl-5-Methoxytryptamine), N-Acetyl-5-Methoxytryptamine]", "valueObserved": 0.28}
{"compound": "Oc1ccc2[nH]ccc2c1 [5-Hydroxyindole]", "valueObserved": "−0.08"}
{"compound": "O=C(O)Cc1c[nH]c2ccccc12 [Indole-3-Acetic Acid]", "valueObserved": 2.40}
